# Test system: MCF7 (breast cancer) cells
# assay.method.text: MTT antiproliferative assay, MCF7
# Type: cell-based, human
# test.parameters: MCF-7, MTT, 72 h
pIC50: −log10 of the molar value.
reported.metric: pIC50

| molecule | subject.of.test | pIC50 |
| --- | --- | --- |
| C[C@@H]1CC[C@@H]([C@](O)(CNCc2ccc(F)cc2)COCc2ccc(F)cc2)[C@H](OCc2ccc(F)cc2)C1 [Compound 45a] | MCF7 (breast cancer) cells | 6.08 |
| COc1ccc(CNC[C@](O)(COCc2ccc(F)cc2)[C@@H]2CC[C@@H](C)C[C@H]2OCc2ccc(F)cc2)cc1 [Compound 46a] | MCF7 (breast cancer) cells | 6.05 |

Sourced from paper PMC11168086
